Target: Vasopressin V2 receptor (Rattus norvegicus)
pIC50: −log10 of the molar value.
recordedEndpoint: pIC50

- smilesRepresentation: "Cn1cncc1CC(=O)N[C@@H](CCC(N)=O)C(=O)N[C@H]1C[C@H]2CC[C@]1(CS(=O)(=O)N1CCC3(CCc4ccccc43)CC1)C2(C)C"
  pIC50: "< 6.52"

Q. Recorded pIC50 for "CC1(C)[C@@H]2CC[C@@]1(CS(=O)(=O)N1CCC3(CCc4ccccc43)CC1)[C@@H](NC(=O)Cc1csc(N)n1)C2" , please?
A. < 5.52

Q. Lookup "CC1(C)[C@@H]2CC[C@@]1(CS(=O)(=O)N1CCC3(C=Cc4ccccc43)CC1)[C@@](O)(CC#N)C2"
A. < 5.00

###

# IC50 values compiled below
Molecular target: Oxytocin receptor (Rattus norvegicus)
Sequence (P70536 whole entry): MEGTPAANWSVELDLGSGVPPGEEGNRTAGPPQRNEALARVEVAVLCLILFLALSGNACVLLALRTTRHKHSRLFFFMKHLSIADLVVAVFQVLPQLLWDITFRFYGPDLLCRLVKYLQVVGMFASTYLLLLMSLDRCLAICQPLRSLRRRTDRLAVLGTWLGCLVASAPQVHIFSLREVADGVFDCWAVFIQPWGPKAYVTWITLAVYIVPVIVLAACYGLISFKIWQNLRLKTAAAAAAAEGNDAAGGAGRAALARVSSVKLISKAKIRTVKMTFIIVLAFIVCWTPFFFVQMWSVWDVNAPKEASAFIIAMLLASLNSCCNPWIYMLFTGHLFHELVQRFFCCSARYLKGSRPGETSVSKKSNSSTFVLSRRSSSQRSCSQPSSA
Just the number please, in nM, no unit attached.

Q. Recorded IC50 for "CC1(C)[C@@H]2CC[C@@]1(CS(=O)(=O)N1CCC3(C=Cc4ccccc43)CC1)[C@@](O)(CNC(=O)Cc1ccccn1)C2" , please?
A. 81

Q. Lookup "CC1(C)[C@@H]2CC[C@@]1(CS(=O)(=O)N1CCC3(CCc4ccccc43)CC1)[C@@H](NC(=O)Cc1cccnc1)C2"
A. 170

Q. Lookup "CC1(C)[C@@H]2CC[C@@]1(CS(=O)(=O)N1CCC3(CCc4ccccc43)CC1)[C@@H](NC(=O)CCc1cccnc1)C2"
A. 180

Q. Lookup CC1(C)[C@@H]2CC[C@@]1(CS(=O)(=O)N1CCC3(CCc4ccccc43)CC1)[C@@H](NC(=O)CC(CC(N)=O)NC(=O)Cc1c[nH]cn1)C2 (stereo partly specified)
A. 50

Q. Lookup "CC1(C)[C@H]2CC[C@]1(CS(=O)(=O)N1CCC3(CCc4ccccc43)CC1)[C@@H](NC(=O)Cc1c[nH]cn1)C2"
A. 10000

Q. Lookup "CC1(C)[C@@H]2CC[C@@]1(CS(=O)(=O)N1CCC3(CCc4ccccc43)CC1)[C@@H](NC(=O)/C=C/c1c[nH]cn1)C2"
A. 150

Q. Lookup "CC1(C)[C@@H]2CC[C@@]1(CS(=O)(=O)N1CCC3(CCc4ccccc43)CC1)[C@@H](N1C(=O)CCC1=O)C2"
A. 11

Q. Lookup "CC1(C)[C@@H]2CC[C@@]1(CS(=O)(=O)N1CCC3(C=Cc4ccccc43)CC1)[C@@](O)(CCNC(=O)Cc1c[nH]cn1)C2"
A. 90

Q. Lookup "CC1(C)[C@@H]2CC[C@@]1(CS(=O)(=O)N1CCC3(C=Cc4ccccc43)CC1)[C@@](O)(CNC(=O)Cc1c[nH]cn1)C2"
A. 45

Q. Lookup CC1(C)[C@@H]2CC[C@@]1(CS(=O)(=O)N1CCC3(CCc4ccccc43)CC1)[C@@H](N1C(=O)NC(CNc3n[nH]c(N)n3)C1=O)C2 (stereo partly specified)
A. 6.7

Q. Lookup CC1(C)[C@@H]2CC[C@@]1(CS(=O)(=O)N1CCC3(CCc4ccccc43)CC1)[C@@H](NC(=O)C1CN3CCC1CC3)C2 (stereo partly specified)
A. 29

Q. Lookup CC1(C)[C@@H]2CC[C@@]1(CS(=O)(=O)N1CCC3(CCc4ccccc43)CC1)[C@@H](NC(=O)C(N)CS(N)(=O)=O)C2 (stereo partly specified)
A. 200

Q. Lookup CC1(C)[C@@H]2CC[C@@]1(CS(=O)(=O)N1CCC3(CCc4ccccc43)CC1)[C@@H](NC(=O)C1CNC(=O)N1)C2 (stereo partly specified)
A. 92

Q. Lookup "CC1(C)[C@@H]2CC[C@@]1(CS(=O)(=O)N1CCC3(CCc4ccccc43)CC1)[C@@H](NC(=O)NCCc1c[nH]cn1)C2"
A. 68

Q. Lookup "CC1(C)[C@@H]2CC[C@@]1(CS(=O)(=O)N1CCC3(C=Cc4ccccc43)CC1)[C@@](O)(CNC(=O)c1n[nH]c(N)n1)C2"
A. 50

Q. Lookup CC1(C)[C@@H]2CC[C@@]1(CS(=O)(=O)N1CCC3(C=Cc4ccccc43)CC1)[C@@](O)(CNC(=O)C1CN3CCC1CC3)C2 (stereo partly specified)
A. 57

###

# pIC50 values compiled below
Target: Vasopressin V2 receptor (Rattus norvegicus, UniProt Q00788)
Sequence (Q00788 whole entry): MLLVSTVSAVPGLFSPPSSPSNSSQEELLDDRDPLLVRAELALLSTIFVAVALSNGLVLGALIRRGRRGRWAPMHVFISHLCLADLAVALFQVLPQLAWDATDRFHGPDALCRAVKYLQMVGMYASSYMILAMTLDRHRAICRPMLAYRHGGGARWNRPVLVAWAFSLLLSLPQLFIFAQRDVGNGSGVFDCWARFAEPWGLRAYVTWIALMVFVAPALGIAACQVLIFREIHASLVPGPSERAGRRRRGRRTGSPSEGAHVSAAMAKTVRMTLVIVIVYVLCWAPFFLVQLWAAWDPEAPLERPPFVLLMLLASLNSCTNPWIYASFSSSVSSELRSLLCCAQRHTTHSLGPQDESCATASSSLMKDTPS
Please report pIC50 as the negative decimal logarithm of the molar concentration, giving only the number.

Examples with answers:
- compound: "CC1(C)[C@@H]2CC[C@@]1(CS(=O)(=O)N1CCC3(C=Cc4ccccc43)CC1)[C@@](O)(CNC(=O)c1ccccn1)C2"
  pIC50: 5.44
- compound: "CC1(C)[C@@H]2CC[C@@]1(CS(=O)(=O)N1CCC3(CCc4ccccc43)CC1)[C@@H](NC(=O)[C@H](N)Cc1c[nH]cn1)C2"
  pIC50: 5.26

// below: pIC50 requested for another compound
Q. Recorded pIC50 for CC1(C)[C@@H]2CC[C@@]1(CS(=O)(=O)N1CCC3(CCc4ccccc43)CC1)[C@@H](N1C(=O)C3CCC(=N)N3C1=O)C2 (some centres not stated) , please?
A. 5.42

###

Target: Vasopressin V1 receptor (Rattus norvegicus, UniProt P48974+P30560)
Test: Inhibition of radioligand [3H]AVP binding to the vasopressin V1 receptor in rat liver tissue
# IC50 values compiled below

Examples with answers:
- smilesRepresentation: "CC1(C)[C@@H]2CC[C@@]1(CS(=O)(=O)N1CCC3(CCc4ccccc43)CC1)[C@@H](NC(=O)Cn1cnnn1)C2"
  targetOrSystem: "Vasopressin V1 receptor (Rattus norvegicus, UniProt P48974+P30560)"
  IC50: "> 1000 nM"
- smilesRepresentation: "CC1(C)[C@@H]2CC[C@@]1(CS(=O)(=O)N1CCC3(C=Cc4ccccc43)CC1)[C@@](O)(CCNC(=O)c1ccncc1)C2"
  targetOrSystem: "Vasopressin V1 receptor (Rattus norvegicus, UniProt P48974+P30560)"
  IC50: "> 1000 nM"
- smilesRepresentation: "CC1(C)[C@@H]2CC[C@@]1(CS(=O)(=O)N1CCC3(CCc4ccccc43)CC1)[C@@H](NC(=O)c1ccncc1)C2"
  targetOrSystem: "Vasopressin V1 receptor (Rattus norvegicus, UniProt P48974+P30560)"
  IC50: "> 1000 nM"
- smilesRepresentation: "CC1(C)[C@@H]2CC[C@@]1(CS(=O)(=O)N1CCC3(C=Cc4ccccc43)CC1)[C@@](O)(CCNC(=O)Cc1c[nH]cn1)C2"
  targetOrSystem: "Vasopressin V1 receptor (Rattus norvegicus, UniProt P48974+P30560)"
  IC50: "> 300 nM"
- smilesRepresentation: "CC1(C)[C@@H]2CC[C@@]1(CS(=O)(=O)N1CCC3(CCc4ccccc43)CC1)[C@@H](NC(=O)c1cccs1)C2"
  targetOrSystem: "Vasopressin V1 receptor (Rattus norvegicus, UniProt P48974+P30560)"
  IC50: "> 10000 nM"

// below: IC50 requested for another molecule
Q. Recorded IC50 for "CC1(C)[C@@H]2CC[C@@]1(CS(=O)(=O)N1CCC3(CCc4ccccc43)CC1)[C@@H](NC(=O)CCc1cccnc1)C2" , please?
A. > 3000 nM

###

Target: Vasopressin V2 receptor (Rattus norvegicus, UniProt Q00788)
# log10 IC50 values compiled below
All values: base-10 log of IC50 in µM.

Examples with answers:
- molecule: "CC1(C)[C@@H]2CC[C@@]1(CS(=O)(=O)N1CCC3(CCc4ccccc43)CC1)[C@@H](NC(=O)C(N)CS(N)(=O)=O)C2 (stereo not given in full)"
  log10 IC50: 1.15
- molecule: "CC1CCC(=O)N1[C@H]1C[C@H]2CC[C@]1(CS(=O)(=O)N1CCC3(CCc4ccccc43)CC1)C2(C)C (stereo not given in full)"
  log10 IC50: 0.97
- molecule: "CC1(C)[C@@H]2CC[C@@]1(CS(=O)(=O)N1CCC3(CCc4ccccc43)CC1)[C@@H](NC(=O)C(CCS(C)(=O)=O)NC(=O)CN)C2 (stereo not given in full)"
  log10 IC50: 0.04
- molecule: "CC1(C)[C@@H]2CC[C@@]1(CS(=O)(=O)N1CCC3(CCc4ccccc43)CC1)[C@@H](NC(=O)[C@@H](N)CCC(N)=O)C2"
  log10 IC50: 0.90
- molecule: "CC1(C)[C@@H]2CC[C@@]1(CS(=O)(=O)N1CCC3(CCc4ccccc43)CC1)[C@@H](N1C(=O)CC(CC(=O)Nc3nn[nH]n3)C1=O)C2 (stereo not given in full)"
  log10 IC50: 0.38

Q. Recorded log10 IC50 for CCC(C(=O)N[C@H]1C[C@H]2CC[C@]1(CS(=O)(=O)N1CCC3(CCc4ccccc43)CC1)C2(C)C)c1c[nH]cn1 (stereo not given in full) , please?
A. 1.18

Q. Lookup CC1(C)[C@@H]2CC[C@@]1(CS(=O)(=O)N1CCC3(CCc4ccccc43)CC1)[C@@H](NC(=O)C(CCS(C)(=O)=O)c1c[nH]cn1)C2 (stereo in doubt)
A. 0.46

Value source: ChEMBL document CHEMBL1126550
